Provenance of the data: paper PMC4622456

measurement-target: recombinant human IL23 (human, UniProt Q9NPF7;P29460)
Sequence (Q9NPF7 20-189, chain 1 of 2): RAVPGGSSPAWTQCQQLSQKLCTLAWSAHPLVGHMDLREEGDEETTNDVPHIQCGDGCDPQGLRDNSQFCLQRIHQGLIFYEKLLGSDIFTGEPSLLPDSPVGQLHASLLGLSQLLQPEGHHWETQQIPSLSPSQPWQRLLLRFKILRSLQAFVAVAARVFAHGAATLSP
Sequence (P29460 23-328, chain 2 of 2): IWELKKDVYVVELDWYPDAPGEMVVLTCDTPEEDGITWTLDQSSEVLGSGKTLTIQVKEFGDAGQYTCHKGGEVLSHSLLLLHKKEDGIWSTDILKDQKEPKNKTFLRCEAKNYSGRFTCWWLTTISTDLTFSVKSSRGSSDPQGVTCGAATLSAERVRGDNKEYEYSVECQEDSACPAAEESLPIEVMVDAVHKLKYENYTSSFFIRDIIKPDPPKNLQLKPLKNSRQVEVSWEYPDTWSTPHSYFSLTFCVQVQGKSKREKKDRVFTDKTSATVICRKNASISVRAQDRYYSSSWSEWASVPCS
assay-text: cell-based or functional assay
measured-attribute: Inhibition of IL23 induced IL17 production in mouse splenocytes (IC50, pM)
Give the quantity in pM, number only.

binder="26F7 (antibody, V domains shown) VH: EVQLQQSGPELVKPGASVKISCKASGYTFTDYYMNWVRQSHGESLEWIGDFNHNNDVITYNPKFKGKVTLTVEKSSTTAYMELRSLSSEDSAVYYCARGLRGYYAMDYWGQGTSVTVSS VL: DIVLTQSPASLAVSLGQRATISCRASKSVRFSDYFYMHWYQQKPGQPPKLLIYLASNLESGVPARFSGSGSGTDFTLNIHPVEEEDAATYYCQNSRELPYTFGGGTKLEIK" units_of_measure=pM number=9

I am curious: what Inhibition of IL23 induced IL17 production in mouse splenocytes (IC50, pM) value has been reported for 34G3 (antibody, V domains shown) VH: EFQLQQSGPELVKPGASVKISCKASGYSFTDYNMNWVKQSKGKSLEWIGVIIPNYGFTSYNQNFKGKATLTVDQSSSTAHMQLNSVTSEDSAVYYCVRDGGILLWYLDVWGTGTTVTVSS VL: DVVMTQTPLSLPVSLGDQASISCRSSQSLVHSNGNTYLHWYLQKPGQSPKLLIYKVSNRFSGVPDRFSGSGSGTDFTLKISRVEAEDLGVYFCSQSTHVPYTFGGGTKLEIN ?
8
